tested on: SN12C renal; test: NCI tumour cell line growth inhibition, 48 h
metric_name: TGI

Name the reported TGI value associated with the compound COC(=O)c1cc(NC(=O)Cn2c3ccccc3c3ccccc32)cn1C
> 100 µM

Next entry: CCN(CC)CCNC(=O)C1COc2ccc(-c3cc(=O)c4ccccc4o3)cc2O1 (stereo unspecified)
55.1 µM

Subsequent entry: COC(=O)C12CCC(CC1=O)C2(C)C (stereo unspecified)
> 100 µM

Also COc1ccc(N2CCN(c3nc(-c4ccccn4)nc4sc5c(c34)CCCCCC5)CC2)cc1 , if possible.
> 100 µM

What do we get for c1ccc(OCC[P+](c2ccccc2)(c2ccccc2)c2ccccc2)cc1 ?
16.4 µM

Repeat with CCOC(=O)/C(C(N)=O)=C(/O)c1cnccn1
> 100 µM

Entry to check: CN(CCCNC(=O)c1[nH]nc2c1ccc1ccccc12)CCCNC(=O)c1[nH]nc2c1ccc1ccccc12
30.1 µM

Same thing, different compound: Cc1cccc(Nc2ncc(-c3ccccc3)o2)c1
> 25 µM

Another compound to check: CN1CN(c2ccccc2)C2(CCN(C(=O)OC(C)(C)C)CC2)C1=O
> 100 µM

Try this compound next: Cc1cc(C2CC(O)C(CO)O2)c(Br)cc1Br (stereo unspecified)
> 100 µM

Also need CC(C)(C)c1cc([Si](C)(C)C)c(C#N)c([Si](C)(C)C)c1 , thanks.
> 100 µM

###

system: DU-145 prostate; assay: NCI tumour cell line growth inhibition, 48 h
I'd appreciate it if you could supply TGI values for the items below.

Looking for the measured TGI of CNC(=O)/C(C#N)=C(\N)N1CCCC1 , can you help?
> 100 µM

Same question, O=C(NC12CC3CC(CC(C3)C1)C2)n1cnc2c(Cl)ncnc21 this time
63.9 µM

Can you check Cc1cc2nc3c(C)c4ccccc4c(C)n3c2cc1C next?
> 10 µM

Next compound: COc1cc2c(cc1OC)C/C(=N\O)c1cc(OC)c(OC)cc1/C=C\2
> 64 µM

Then this compound: CC(C)C(C=O)C(O)(C(F)(F)F)C(F)(F)F (configuration not stated)
> 100 µM

Please answer likewise for CC(NC(=O)C(NC(=O)C(NC(=O)C(F)(F)F)C(C)C)C(C)C)C(=O)Oc1c(Cl)c(Cl)c(Cl)c(Cl)c1Cl (configuration not stated)
> 100 µM

Try this compound next: CC#CC#C/C=C1/C=CC2(CCCCO2)O1 (configuration not stated)
> 100 µM

###

system: NCI-H522 lung; assay: NCI tumour cell line growth inhibition, 48 h
Field: TGI. Provide a value for each of the compounds that follow.

Requested field: TGI. Item: Cc1ccccc1C1SCc2nc3ccccc3n21 (stereo not drawn)
> 100 µM

Next up: CCCCCCCN(CCCCCCC)C(=N)c1ccc(OC)c2ccccc12
2.73 µM

Next compound up: CCC(/C(=N/NC(=O)C[N+](C)(C)C)c1ccccc1)C1OC(=O)c2ccccc21 (stereo not drawn)
> 100 µM

Next: O=C(Nc1cccc(Cl)c1)Nc1cc(C(F)(F)F)ccc1Cl
7.7 µM

What do you get for O=C(Nc1n[nH]c2cc(-c3ccc(F)cc3)ccc12)C1CC1 ?
> 21.1 µM

Next record, please: O=C(O)Cn1cnc2c(=O)[nH]c(Nc3ccccc3)nc21
> 100 µM

Can you handle CC(C)C(N=C1CC2CCC1(C(=O)Nc1ccccc1O)C2(C)C)c1ccccc1 (stereo not drawn) next?
> 10 µM

Another compound: Cn1cc(-c2nc(-c3c[nH]c4ccccc34)cs2)c2cccnc21
6.67 µM

Now consider Cc1c(-c2c(F)cc(C(N)=O)c3[nH]c4c(c23)CC[C@H](C(C)(C)O)C4)cccc1-n1c(=O)c2cccc(F)c2n(C)c1=O and answer again.
32.9 µM

And what about the compound Cc1cc(S(=O)(=O)Nc2nc3ccccc3s2)c(SCc2ccccc2)cc1Cl ?
> 100 µM

Also O=C(N/N=C/c1ccc(O)cc1)NNCCO , if possible.
> 100 µM

Same read-out for NC(=O)C1CCCN1Cc1ccc2c(c1)OCO2 (stereo not drawn) ?
> 100 µM

Try CC(=O)Nc1ccc(S(=O)(=O)Nc2cnc3ccccc3n2)cc1 next.
> 100 µM

Here is the next compound: CN1c2cccc[c]2[Sn]([CH3])([CH3])[c]2ccccc21
0.0262 µM

Let us now turn to Cc1cccc(N=Nc2ccc(O)c(CN(C)C)c2)c1
24.1 µM

What do you have for C#CCn1c(=O)c2cc(OC)c(OC)cc2n(CC#C)c1=O ?
> 10 µM

What do you have for Nc1nc(Cl)cc(Oc2ccc(Cl)cc2)n1 ?
> 72.8 µM

Check CC(C)C(C=O)C(O)(C(F)(F)F)C(F)(F)F (stereo not drawn) too.
> 100 µM

Same read-out for CC(=O)[C@H]1CC[C@@H]2[C@]1(C)CC=C1[C@]23C=C[C@]2(C[C@@H](O)CC[C@]12C)C(C(=O)O)C3C(=O)O (stereo partly drawn) ?
> 100 µM

Try this compound too: COc1ccc(C2=Nn3c(nc4sc5c(c4c3=O)CCCC5)SC2)cc1
> 100 µM

Can you handle Cc1ccc(C2=C(c3ccccc3)C(O)(c3ccccc3)C(c3ccccc3)=C2c2ccc(C)cc2)cc1 next?
> 100 µM

Same thing, different compound: CCCC(CCC(=O)O)(CCC(=O)O)[N+](=O)[O-]
> 100 µM

Also, Cc1cc(NCCCCCCCCNc2cc(C)nc3cc(N(C)C)ccc23)c2ccc(N(C)C)cc2n1 please.
12.9 µM

Value source: PubChem BioAssay (NCI)
